Provenance of the data: paper PMC10974622

# Test system: P. falciparum strain F32-ART (artemisinin-resistant)
# Assay: microbe, parasite or virus in culture
# Assay type: cell-based, Plasmodium falciparum
# Condition: cytotoxicity (Vero cells)/antiplasmodial activity (F32-ART) ratio
Measured Quantity: Selectivity Index CC50/IC50

Lookup: Selectivity Index CC50/IC50 / P. falciparum strain F32-ART (artemisinin-resistant) / C[C@@H]1CC[C@H]2[C@@H](C)C(=O)O[C@@H]3O[C@@]4(C)CC[C@@H]1[C@]32OO4 [ART, Artemisinin, reference compound]
>1500

Can you look up Selectivity Index CC50/IC50 on P. falciparum strain F32-ART (artemisinin-resistant) for CC(ON1C(C)(C)CCCC1(C)C)c1ccc(NC(=O)[C@H](Cc2ccccc2)NC(=O)[C@@H](NC(=O)[C@H](Cc2ccccc2)NC(=O)OC(C)(C)C)C(C)C)cc1 (stereo partly drawn) [A3L, Boc-Phe-Val-Phe-anilide-TEMPO] ?
>165

Identify the measured Selectivity Index CC50/IC50 of CC(ON1C(C)(C)CCCC1(C)C)c1ccc(NC(=O)[C@H](Cc2ccccc2)NC(=O)[C@@H](NC(=O)[C@H](Cc2ccccc2)NC(=O)CCC(=O)O)C(C)C)cc1 (stereo partly drawn) [A7L, suc-Phe-Val-Phe-anilide-TEMPO] for P. falciparum strain F32-ART (artemisinin-resistant).
>10

Please tell me: Selectivity Index CC50/IC50 of CC(ON(C(C)(C)C)C(C)(C)C)c1ccc(NC(=O)[C@H](Cc2ccccc2)NC(=O)[C@@H](NC(=O)[C@H](Cc2ccccc2)NC(=O)OC(C)(C)C)C(C)C)cc1 (some centres unmarked) [A8L] , system P. falciparum strain F32-ART (artemisinin-resistant)?
>185

What Selectivity Index CC50/IC50 appears in the records for this molecule with P. falciparum strain F32-ART (artemisinin-resistant)? CC(ON1C(C)(C)CCCC1(C)C)c1ccc(NC(=O)[C@H](Cc2ccccc2)NC(=O)[C@@H](NC(=O)[C@H](Cc2ccccc2)NC(=O)CCC(=O)OCc2ccccc2)C(C)C)cc1 (some centres unmarked) [A6L]
>6.9

* * *

# Test system: P. falciparum strain F32-ART (artemisinin-resistant)
# Assay: microbe, parasite or virus in culture
# Format: cell-based, Plasmodium falciparum
# Condition: cytotoxicity (Vero cells)/antiplasmodial activity (F32-ART) ratio
So I've got a bunch of compounds here, and I need their Selectivity Index CC50/IC50 values.
// return a plain number; no unit text

Which measured Selectivity Index CC50/IC50 value corresponds to CC(ON1C(C)(C)CCCC1(C)C)c1ccc(NC(=O)[C@@H](Cc2ccccc2)NC(=O)[C@H](NC(=O)[C@H](N)Cc2ccccc2)C(C)C)cc1 (stereo partly drawn) [A5D] ?
1.0

Can you share its Selectivity Index CC50/IC50? I mean this compound: CC(ON1C(C)(C)CCCC1(C)C)c1ccc(NC(=O)[C@@H](Cc2ccccc2)NC(=O)[C@H](NC(=O)[C@H](N)Cc2ccccc2)C(C)C)cc1 (stereo partly drawn) [A4D]
1.1

* * *

I'd appreciate it if you could supply activation energy Ea values for the items below.
# Assay: Kinetic analysis of alkoxyamine bond homolysis by EPR
# Type: physicochemical
# Condition: in t-BuPh, Equation (2), A = 2.4 · 10^14 s^−1
Note: a bare number is incomplete; add the unit.

What value of measured activation energy Ea is listed for CC(ON(C(C)(C)C)C(C)(C)C)c1ccc(NC(=O)[C@H](Cc2ccccc2)NC(=O)[C@@H](NC(=O)[C@H](Cc2ccccc2)NC(=O)OC(C)(C)C)C(C)C)cc1 (some centres unmarked) ?
28.9 kcal/mol

Name the reported activation energy Ea value associated with the compound CC(ON(C(C)(C)C)C(C)(C)C)c1ccc(NC(=O)[C@@H](Cc2ccccc2)NC(=O)[C@@H](NC(=O)[C@H](Cc2ccccc2)NC(=O)OC(C)(C)C)C(C)C)cc1 (some centres unmarked)
28.51 kcal/mol

Look at this compound and give its reported activation energy Ea. CC(ON(C(C)(C)C)C(C)(C)C)c1ccc(NC(=O)[C@H](Cc2ccccc2)NC(=O)OC(C)(C)C)cc1 (some centres unmarked)
28.8 kcal/mol

If you can, please state the reported activation energy Ea value of CC(ON(C(C)(C)C)C(C)(C)C)c1ccc(NC(=O)[C@@H](Cc2ccccc2)NC(=O)OC(C)(C)C)cc1 (some centres unmarked) .
28.87 kcal/mol

Item CC(ON(C(C)(C)C)C(C)(C)C)c1ccc(NC(=O)[C@@H](Cc2ccccc2)NC(=O)[C@H](NC(=O)[C@@H](Cc2ccccc2)NC(=O)OC(C)(C)C)C(C)C)cc1 (some centres unmarked) has what recorded activation energy Ea?
28.94 kcal/mol

* * *

For each of the compounds below, state its activation energy Ea.
# Assay: Kinetic analysis of alkoxyamine bond homolysis by EPR
# Assay type: physicochemical
# Condition: in water/n-PrOH 1/1 v/v, Equation (2), A = 2.4 · 10^14 s^−1
Use kcal/mol as the unit, but write only the number.

Reported activation energy Ea for CC(ON(C(C)(C)C)C(C)(C)C)c1ccc(NC(=O)[C@@H](Cc2ccccc2)NC(=O)[C@@H](NC(=O)[C@H](Cc2ccccc2)NC(=O)OC(C)(C)C)C(C)C)cc1 (stereo partly drawn) [A8DL] : what is it?
28.3

Could you tell me which activation energy Ea is on file for CC(ON(C(C)(C)C)C(C)(C)C)c1ccc(NC(=O)[C@@H](Cc2ccccc2)NC(=O)OC(C)(C)C)cc1 (some centres unmarked) [A9D] ?
28.42

Would you kindly share the measured activation energy Ea for CC(ON(C(C)(C)C)C(C)(C)C)c1ccc(NC(=O)[C@@H](Cc2ccccc2)NC(=O)[C@H](NC(=O)[C@@H](Cc2ccccc2)NC(=O)OC(C)(C)C)C(C)C)cc1 (some centres unmarked) [A8D] ?
28.32

Query (compound): CC(ON(C(C)(C)C)C(C)(C)C)c1ccc(NC(=O)[C@H](Cc2ccccc2)NC(=O)[C@@H](NC(=O)[C@H](Cc2ccccc2)NC(=O)OC(C)(C)C)C(C)C)cc1 (some centres unmarked) [A8L] ; field requested: activation energy Ea
28.9

Could you share which activation energy Ea value was measured for CC(ON(C(C)(C)C)C(C)(C)C)c1ccc(NC(=O)[C@H](Cc2ccccc2)NC(=O)OC(C)(C)C)cc1 (some centres unmarked) [A9L] ?
28.42
